Data provenance: patent US20240417469A1

Reported values of koff for individual entries
Target: T1, recombinant CD3D&E protein (human CD3-his tag) (human, UniProt P04234 22-105; P07766 23-126, limits assumed)
T1 construct: Analyte in Biacore; also called CD3D&E-His; CD3d&ε-His
T1 sequence (P04234 22-105 limits assumed, chain 1 of 2): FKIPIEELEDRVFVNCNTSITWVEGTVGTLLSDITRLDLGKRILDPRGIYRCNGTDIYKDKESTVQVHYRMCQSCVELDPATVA
T1 sequence (P07766 23-126 limits assumed, chain 2 of 2): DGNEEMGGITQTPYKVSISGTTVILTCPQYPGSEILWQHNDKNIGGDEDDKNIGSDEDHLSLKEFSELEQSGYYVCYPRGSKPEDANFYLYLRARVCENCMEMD
Experiment: SPR Biacore, Ab captured on Protein A;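 further: humanized antibodies on a Protein A chip, human CD3-his analyte flowed over in serial dilutions for 3 min, dissociation tracked 120–360 s on a Biacore T200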
Express the result in s⁻¹ but write the number alone.

Hu192A7B9-5 (antibody, V domains shown, humanized mAb) VH: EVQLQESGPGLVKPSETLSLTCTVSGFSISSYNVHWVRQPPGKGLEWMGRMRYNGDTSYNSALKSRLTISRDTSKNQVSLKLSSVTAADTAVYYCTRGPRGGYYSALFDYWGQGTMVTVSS VL: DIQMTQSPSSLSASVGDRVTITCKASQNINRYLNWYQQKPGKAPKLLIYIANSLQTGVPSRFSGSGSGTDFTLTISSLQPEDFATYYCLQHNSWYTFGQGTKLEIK | 0.0119

Query binder follows.
Q: Fill in: koff of Hu155A9B1-8 (antibody, V domains shown, humanized mAb; also called 155z8) VH: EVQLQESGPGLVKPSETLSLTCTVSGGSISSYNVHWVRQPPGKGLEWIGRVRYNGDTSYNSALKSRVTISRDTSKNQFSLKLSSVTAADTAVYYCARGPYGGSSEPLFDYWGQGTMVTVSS VL: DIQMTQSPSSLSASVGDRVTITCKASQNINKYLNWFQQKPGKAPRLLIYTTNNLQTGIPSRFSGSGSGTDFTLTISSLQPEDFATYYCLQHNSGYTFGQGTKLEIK is ___
A: 0.0159
